Assignment: determine reported CC90 for the given compounds.
System: Huh7, HepG2, BxPC3, or CEM cells
Assay: Cell cytotoxicity assay (MTS), CC90 as reported in Table 1, cell line not stated
Type: cell-based
Details: MTS assay; 8 days incubation; cell line not given

Looking for the measured CC90 of CC(C)C[C@H]1CN(C(=O)[C@@H]2C[C@H]2c2ccc(F)cc2F)[C@@H](CC(C)C)C(=O)N1 [Compound 298] , can you help?
> 10 µM

Looking for the measured CC90 of CC(C)C[C@H]1CN(C(=O)c2cc(-c3ccc([N+](=O)[O-])cc3)on2)[C@@H](CC(C)C)C(=O)N1 [Compound 273] , can you help?
> 10 µM

Looking for the measured CC90 of CC(C)C[C@H]1C(=O)N[C@@H](c2ccccc2)CN1C(=O)[C@@H]1C[C@H]1c1ccc(Cl)cc1 [Compound 301] , can you help?
> 10 µM

###

Assay: Cell cytotoxicity assay (MTS), CC90 as reported in Table 1, cell line not stated
Assay type: cell-based
Conditions: human; MTS assay; 8 days incubation; cell line not given
Result Type: CC90 at 8 days

Looking for the measured CC90 at 8 days of CC(C)C[C@H]1C(=O)N[C@@H](c2ccc(C(F)(F)F)cc2)CN1C(=O)c1cc(-c2ccc(F)cc2)on1 [Compound 366] , can you help?
> 10 µM

Looking for the measured CC90 at 8 days of CSC[C@H]1CN(C(=O)c2noc(-c3ccc(F)cc3)n2)[C@@H](CC(C)C)C(=O)N1 [Compound 296] , can you help?
> 10 µM

Looking for the measured CC90 at 8 days of C=CC[C@H]1C(=O)N[C@@H](CCC)CN1C(=O)c1cc(-c2ccc(F)cc2)on1 [Compound 409] , can you help?
> 10 µM

Looking for the measured CC90 at 8 days of CSc1ccc(/C=C/C(=O)N2C[C@H](CC(C)C)NC(=O)[C@@H]2CC(C)C)cc1 [Compound 268] , can you help?
> 10 µM

Looking for the measured CC90 at 8 days of O=C1N[C@@H](c2ccccc2)CN(C(=O)c2cc(-c3ccc(F)cc3)on2)[C@H]1CC1CC1 [Compound 336] , can you help?
> 10 µM

Looking for the measured CC90 at 8 days of CC(C)C[C@H]1C(=O)N[C@@H](c2ccccc2)CN1C(=O)[C@@H]1C[C@H]1c1ccc(Br)cc1 [Compound 333] , can you help?
> 10 µM

Looking for the measured CC90 at 8 days of C/C=C/[C@H]1CN(C(=O)c2cc(-c3ccc(F)cc3)on2)[C@@H](CC(C)C)C(=O)N1 [Compound 424] , can you help?
> 10 µM

###

Assay: Cell cytotoxicity assay (MTS), CC90 as reported in Table 1, cell line not stated
Format: cell-based
Details: human; MTS assay; 8 days incubation; cell line not given
Assignment: determine reported CC90 at 8 days for the given compounds.

Looking for the measured CC90 at 8 days of CC(C)C[C@H]1C(=O)N[C@@H](c2ccccc2)CN1C(=O)c1cc(-c2ccc(Cl)cc2)no1 [Compound 316] , can you help?
> 10 µM

Looking for the measured CC90 at 8 days of CC(C)C[C@H]1C(=O)N[C@@H](c2cccc(F)c2)CN1C(=O)[C@@H]1C[C@H]1c1ccccc1 [Compound 369] , can you help?
> 10 µM

Looking for the measured CC90 at 8 days of CC(C)C[C@H]1CN(C(=O)c2cc(-c3ccccc3Cl)on2)[C@@H](CC(C)C)C(=O)N1 [Compound 274] , can you help?
> 10 µM

Looking for the measured CC90 at 8 days of COc1ccc2c(c1)CCc1cc(C(=O)N3C[C@H](CC(C)C)NC(=O)[C@@H]3CC(C)C)sc1-2 [Compound 286] , can you help?
> 10 µM

Looking for the measured CC90 at 8 days of CC(C)C[C@H]1C(=O)N[C@@H](c2cccs2)CN1C(=O)c1nc(-c2ccc(F)cc2)no1 [Compound 431] , can you help?
> 10 µM

Looking for the measured CC90 at 8 days of CC(C)C[C@H]1C(=O)N[C@@H](c2ccccc2)N1C(=O)c1cc(-c2ccc(F)cc2)on1 [Compound 528] , can you help?
> 10 µM

Looking for the measured CC90 at 8 days of COc1ccc2c(c1)CCc1c(C(=O)N3C[C@H](CC(C)C)NC(=O)[C@@H]3CC(C)C)noc1-2 [Compound 289] , can you help?
> 10 µM

Looking for the measured CC90 at 8 days of CC(C)C[C@H]1C(=O)N[C@@H](c2ccccc2)N1C(=O)[C@H]1C[C@@H]1c1ccccc1 [Compound 530] , can you help?
> 10 µM

Looking for the measured CC90 at 8 days of CC(C)C[C@H]1C(=O)N[C@@H](c2ccccc2F)CN1C(=O)c1cc(-c2ccc(F)cc2)no1 [Compound 372] , can you help?
> 10 µM

Looking for the measured CC90 at 8 days of CC(C)C[C@H]1C(=O)N[C@@H](c2ccccc2)CN1C(=O)c1noc(-c2ccc(Cl)cc2)n1 [Compound 406] , can you help?
> 10 µM

Looking for the measured CC90 at 8 days of CC(C)C[C@H]1C(=O)N[C@H](c2ccccc2)CCN1C(=O)[C@@H]1C[C@H]1c1ccccc1 [Compound 417] , can you help?
> 10 µM

Looking for the measured CC90 at 8 days of CC(C)C[C@H]1C(=O)N[C@@H](c2ccc(Cl)s2)CN1C(=O)c1cc(-c2ccc(F)cc2)on1 [Compound 488] , can you help?
> 10 µM

Looking for the measured CC90 at 8 days of C=CC[C@H]1C(=O)N[C@@H](c2ccccc2)CN1C(=O)[C@@H]1C[C@H]1c1ccc(F)cc1 [Compound 462] , can you help?
> 10 µM

Looking for the measured CC90 at 8 days of CC(C)C[C@H]1CN(C(=O)[C@H]2C[C@@H]2c2ccc(F)cc2F)[C@@H](CC(C)C)C(=O)N1 [Compound 421] , can you help?
> 10 µM

Looking for the measured CC90 at 8 days of CC(C)C[C@H]1C(=O)N[C@@H](c2ccccc2F)CN1C(=O)c1cc(-c2ccc(F)cc2)on1 [Compound 355] , can you help?
> 10 µM
